- assayName: Solubility and pH of salts
- experimentalParameters: polyethyleneglycol, organic solvent or mixture
measurementLabel: solubility

# query: solubility of entry CC(C)(C)NCC(O)c1ccc(OC(=O)C2CCCCC2)c(OC(=O)C2CCCCC2)c1.Cl (stereo not shown) [Example 15] < 1000 µg/mL

* * *

- System: guinea pig bronchioles constricted by carbachol
- assayName: Bronchodilator Test Method II, in vitro perfused guinea pig lung
- experimentalParameters: dose 10 mcg (base)
measurementLabel: Duration, Mean
Answer with the value and then the unit.

# query: Duration, Mean of entry COc1ccc(C(=O)Oc2ccc(C(O)CNC(C)(C)C)cc2OC(=O)c2ccc(OC)cc2)cc1.Cl (centres unmarked) 32 ± 5 min

# query: Duration, Mean of entry CC(=O)OCc1cc(C(O)CNC(C)(C)C)ccc1OC(=O)c1ccc(C)cc1 (centres unmarked) 25.5 ± 16.2 min

# query: Duration, Mean of entry Cc1ccc(C(=O)Oc2ccc(C(O)CNC(C)(C)C)cc2OC(=O)c2ccc(C)cc2)cc1 (centres unmarked) 60 ± 9.6 min

# query: Duration, Mean of entry Cc1cccc(C(=O)Oc2ccc(C(O)CNC(C)(C)C)cc2OC(=O)c2cccc(C)c2)c1 (centres unmarked) 104.1 ± 34.9 min

Please turn your attention to the following entry.
# query: Duration, Mean of entry COc1ccc(C(=O)Oc2ccc(C(O)CNC(C)(C)C)cc2COC(C)=O)cc1 (centres unmarked) 67.3 ± 33.7 min

* * *

- assayName: Solubility and pH of salts
- experimentalParameters: polyethyleneglycol 200, organic solvent or mixture
measurementLabel: solubility

# query: solubility of entry COc1ccc(C(=O)Oc2ccc(C(O)CNC(C)(C)C)cc2OC(=O)c2ccc(OC)cc2)cc1.Cl (stereo not shown) < 10000 µg/mL

* * *

Known solubility of a selection of compounds
- assayName: Solubility and pH of salts
- experimentalParameters: water

Take a look at these entries with their results.
# query: solubility of entry CCC(C)CC(=O)Oc1ccc(C(O)CNC(C)(C)C)cc1OC(=O)CC(C)CC.Cl (stereo not shown) [Example 6] ≥ 50 mg/mL

# query: solubility of entry CC(C)(C)NCC(=O)c1ccc(OC(=O)C(C)(C)C)c(OC(=O)C(C)(C)C)c1.Cl ≥ 10 mg/mL

Please turn your attention to the following entry.
# query: solubility of entry CCC(C)C(=O)Oc1ccc(C(O)CNC(C)(C)C)cc1OC(=O)C(C)CC.Cl (stereo not shown) [Example 4] ≥ 50 mg/mL

* * *

- assayName: Solubility and pH of salts
- experimentalParameters: glycerol formal, organic solvent or mixture
measurementLabel: solubility

# query: solubility of entry CC(C)(C)NCC(O)c1ccc(OC(=O)c2ccccc2)c(OC(=O)c2ccccc2)c1.Cl (stereo not shown) ≥ 10000 µg/mL

* * *

- assayName: Solubility and pH of salts
- experimentalParameters: water
Structures can show the parent of a compound that is named as a salt.
Known solubility of a selection of compounds

# query: solubility of entry CC(C)(C)CC(=O)Oc1ccc(C(O)CNC(C)(C)C)cc1OC(=O)CC(C)(C)C.Cl (stereo not shown) ≥ 10 mg/mL

# query: solubility of entry Cc1ccc(C(=O)Oc2ccc(C(O)CNC(C)(C)C)cc2O)cc1 (stereo not shown) ≥ 50 mg/mL

# query: solubility of entry CC(C)(C)NCC(O)c1ccc(OC(=O)C(C)(C)C)c(OC(=O)C(C)(C)C)c1.Cl (stereo not shown) ≥ 50 mg/mL

# query: solubility of entry CC(C)CC(=O)Oc1cc(C(O)CNC(C)(C)C)ccc1OC(=O)C(C)(C)C.Cl (stereo not shown) ≥ 50 mg/mL

# query: solubility of entry CC(C)(C)NCC(O)c1ccc(OC(=O)C2CCCCC2)c(OC(=O)C2CCCCC2)c1.Cl (stereo not shown) < 1 mg/mL

---
# query: solubility of entry CCCC(=O)Oc1ccc(C(O)CNC(C)(C)C)cc1OC(=O)CCC.Cl (stereo not shown) ≥ 200 mg/mL

# query: solubility of entry CCCC(C)(C)C(=O)Oc1ccc(C(O)CNC(C)(C)C)cc1OC(=O)C(C)(C)CCC (stereo not shown) ≥ 50 mg/mL

# query: solubility of entry CC(C)CC(=O)Oc1ccc(C(O)CNC(C)(C)C)cc1OC(=O)CC(C)C.Cl (stereo not shown) ≥ 200 mg/mL

# query: solubility of entry CC(C)CC(=O)Oc1ccc(C(O)CNC(C)(C)C)cc1O (stereo not shown) ≥ 50 mg/mL

# query: solubility of entry Cc1ccc(C(=O)Oc2ccc(C(=O)CNC(C)(C)C)cc2OC(=O)c2ccc(C)cc2)cc1 [hydrochloride] < 1 mg/mL
